- TARGET_OR_TEST_SYSTEM: Sigma intracellular receptor 2 (Homo sapiens, UniProt Q5BJF2)
- Sequence (Q5BJF2 whole entry): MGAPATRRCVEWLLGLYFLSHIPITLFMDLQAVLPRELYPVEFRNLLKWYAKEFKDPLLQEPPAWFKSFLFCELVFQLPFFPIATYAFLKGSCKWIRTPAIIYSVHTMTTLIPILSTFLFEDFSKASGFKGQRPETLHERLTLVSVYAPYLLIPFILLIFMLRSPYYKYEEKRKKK
- PROTOCOL: PDSP Secondary Binding target: TMEM97 - Compounds are tested at 10 uM concentration, plate are incubated at room temperature in the dark for 90 minutes. Reaction are stopped by vacuum filtration onto 0.3% polyethyleneimine soaked filter mats using Filtermate harvester. Scintillation cocktail is then melted onto microwave-dried filters on a hot plate and the radio activity is counted in Microbia counter.
TEST_READOUT: pKi
Just the number, please; pKi means minus log10 of the concentration in mol/L.

Record excerpt, results attached:
Cc1nn(C)c(C)c1-c1cccc2c1CC[C@H](N(C)C)C2	5.95
CC(C)[C@H](CO)Nc1nc(Nc2cccc(Cl)c2)c2ncn(C(C)C)c2n1	5.95
COc1ccc(NC(=O)c2ccc(-c3ccc(-c4noc(C)n4)cc3C)cc2)cc1OCCN(C)C	6.16
Cc1ccccc1C(=O)Nc1ccc(C(=O)N2CCCC(O)c3cc(Cl)ccc32)c(C)c1 (stereo unspecified)	5.99

Task: Missing value: pKi, Sigma intracellular receptor 2 (Homo sapiens, UniProt Q5BJF2), entry NCCc1cn(S(=O)(=O)c2c(Cl)nc3sccn23)c2ccccc12 . Fill in?
Result: 6.17

Task: Also check COc1ccccc1CN[C@H]1C2CCN(CC2)[C@H]1C(c1ccccc1)c1ccccc1
Result: 6.04

Values from ChEMBL document CHEMBL5442175
